# credit: PubChem BioAssay AID493034

target: Platelet-activating factor acetylhydrolase IB subunit alpha2 (Homo sapiens) (UniProt P68402); experiment: inhibition of human PAFAH1B2 catalytic subunit – biochemical, fluorescence polarization, FP-rhodamine probe, triplicate, confirmation (AID 493034); conditions: recombinant PAFAH1B2, FP-rhodamine probe fluorescence polarization; at 3.39 µM; stronger effect = higher value;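 also: 0% = enzyme with DMSO and 100% = wells lacking PAFAH1B2 protein; inhibitors lower polarization by leaving the probe unbound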
Sequence (P68402 whole entry, looked up): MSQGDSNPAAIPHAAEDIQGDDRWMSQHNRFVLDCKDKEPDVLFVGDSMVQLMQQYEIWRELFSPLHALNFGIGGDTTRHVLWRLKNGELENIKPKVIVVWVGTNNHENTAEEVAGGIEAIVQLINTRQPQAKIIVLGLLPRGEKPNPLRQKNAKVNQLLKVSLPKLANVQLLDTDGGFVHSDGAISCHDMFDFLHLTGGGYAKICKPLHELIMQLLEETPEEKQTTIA
In all, about 2,400 compounds went through this assay and about 2,200 (92%) were called active. So high a share suggests a set chosen from earlier hits. This is one part of the list.
inhibition reference

| molecule | readout.units | inhibition |
| --- | --- | --- |
| COc1cc(/C=N/N(C)S(=O)(=O)c2ccc(C)cc2)cc([N+](=O)[O-])c1O | % | 30.5 |
| N#C/C(=C\c1cc2c(cc1Br)OCO2)c1ccc(C(=O)O)cc1 | % | 23.6 |
| CCC[C@@H]1CCCO[C@@](C(=O)NCc2ccccn2)(C(F)(F)F)C1 | % | 20 |
| Cn1nc(C(=O)NCCc2ccc(Cl)cc2)c2c1-c1ccccc1S(=O)(=O)C2 | % | 23.3 |
| Cc1ccc(C(c2nnnn2Cc2ccccc2)N2CCN(Cc3ccccc3)CC2)cc1 (stereo not drawn) | % | 16.6 |
| CCC(Sc1nc(-c2cccc(OC)c2)c(C#N)c(=O)[nH]1)C(=O)Nc1nnc(C(C)C)s1 (stereo not drawn) | % | 34.6 |
| COc1cccc(/C=N/Nc2ccc(S(=O)(=O)Nc3ccccc3C(=O)O)cc2[N+](=O)[O-])c1O | % | 20.4 |
| COc1ccc(NC(=O)O/N=C/c2ccc(Br)cc2)cc1 | % | 7.26 |
| O=C(O)CCc1ccc(-c2ccc(Br)cc2)n1-c1ccc(O)cc1 | % | 31.6 |
| CC(=O)Nc1ccc(NC(=O)C(C)OC(=O)C2(c3ccc(F)cc3)CCCC2)cc1 (stereo not drawn) | % | 23.3 |
| C[C@H](NC(=O)c1nc[nH]c1C(=O)NCC(=O)OCc1ccccc1)c1ccccc1 | % | 23.8 |
| COc1ccc(CCN(C)Cc2c(O)ccc3cc(Br)ccc23)cc1OC | % | 14.9 |
| CC(C)(C)NC(=O)C(=O)NNC(=O)COc1ccc(Br)cc1 | % | 23.5 |
| CC(=O)c1sc(NC(=O)C2(F)C(F)(F)C(F)(F)C(F)(F)C(F)(F)C2(F)F)nc1C | % | 28.6 |
| COc1cc(C=O)ccc1OCCSc1ccc(C)cc1 | % | 23 |
| CCOc1cc(/C=C(/C#N)c2ccc(F)cc2)ccc1OCc1ccc(C(=O)O)o1 | % | 4.35 |
| Cc1ccc(-c2csc(NCCn3c(C)nc4cc(C(F)(F)F)ccc43)n2)cc1 | % | 23.5 |
| O=C(O)c1ccn2c(C(=O)c3ccccc3)c(-c3ccccc3)cc2c1 | % | 27.1 |
